Every entry's value here was drawn from PubChem BioAssay.

experiment: ovarian cancer cell viability with rucaparib, profiling panel, oncology-focused library, rucaparib conditional (AID 1508598); conditions: patient-derived ovarian cancer cells, CellTiter-Glo viability, 144 h; at 0.0195 µM; OCI-P5x cells; with rucaparib 20 µM; 100% = cells with rucaparib alone
Activity calls are given as the source filed them.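 The calls were made as follows: active = normalized viability below 100% at a tested concentration; inactive = the rest.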
Mark one answer only. Choices: YES for active, NO for inactive

query: Which outcome was entered for the molecule "CN1CC[C@H](c2c(O)cc(O)c3c(=O)cc(-c4ccccc4Cl)oc23)[C@H](O)C1" in this test?
result: YES

###

test: differential killing of epithelial or mesenchymal cells, primary screen, imaging, PC-3E GFP, TEM4-18 mCherry, co-culture (AID 1345086); conditions: imaging cell counts, measured here: mesenchymal TEM4-18 mCherry cell survival, at 1 µM;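 also: cells exposed to compound for 72 h before imaging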
Label Criterion not met if normalised cell number falls below 1; label Criterion met in every other case.

Worked examples follow.
INSERT INTO results (compound, class_label) VALUES
  ('CN1C(CC(=O)c2ccccc2)CCCC1CC(O)c1ccccc1 (stereo unspecified)', 'Criterion not met'),
  ('Cn1cc[nH]c1=S', 'Criterion met');

query: Answer whether normalised cell number of "CC(=O)c1ccc2c(c1)N(CCCN(C)C)c1ccccc1S2" is greater than or equal to 1.
result: Criterion not met

query: Answer whether normalised cell number of "COc1ccc2cc([C@H](C)C(=O)O)ccc2c1" is greater than or equal to 1.
result: Criterion met

query: Answer whether normalised cell number of CCCCC(CC)COc1ccc(-c2nc(-c3ccc(OC)cc3)nc(-c3ccc(OCC(CC)CCCC)cc3O)n2)c(O)c1 (stereo unspecified) is greater than or equal to 1.
result: Criterion met

query: Answer whether normalised cell number of "Nc1ccc(S(=O)(=O)Nc2ncccn2)cc1" is greater than or equal to 1.
result: Criterion met

query: Answer whether normalised cell number of "CNC(=O)c1c(I)c(NC(C)=O)c(I)c(C(=O)O)c1I" is greater than or equal to 1.
result: Criterion not met

query: Answer whether normalised cell number of "O=C(O)CN(CCN(CC(=O)O)CC(=O)O)CCN(CC(=O)O)CC(=O)O" is greater than or equal to 1.
result: Criterion not met

query: Answer whether normalised cell number of "COc1ccc(C(=O)/C=C/c2ccccc2)cc1" is greater than or equal to 1.
result: Criterion met

query: Answer whether normalised cell number of "O=C(/C=C/c1ccc(O)c(O)c1)OCCc1ccccc1" is greater than or equal to 1.
result: Criterion not met

###

target: 6-phosphogluconate dehydrogenase, decarboxylating (Homo sapiens); assay: 6PGD enzyme inhibitors, primary screen, biochemical, human, recombinant enzyme, NADPH absorbance (AID 1159550); details: recombinant 6PGD, NADPH absorbance 341 nm; at 10 µM; stronger effect = higher value
Parameter measured: inhibition (%)
Express the result in % but write the number alone.

Here are 3 molecules together with their reported answers.
INSERT INTO measurements (molecule, parameter_measured, experimental_result) VALUES
  ('COc1cc(OC)c2ccc(=O)oc2c1', 'inhibition', 9.07),
  ('CC1(C)CCC2(C(=O)O)CCC3(C)C(=CCC4C5(C)CCC(O)C(C)(C)C5CCC43C)C2C1 (stereo unspecified)', 'inhibition', 0.817),
  ('Cn1c(=O)[nH]c2ncn(C)c2c1=O', 'inhibition', -14.1);

query: For "CN1C(=O)CC[C@H]1c1cccnc1" , write its inhibition.
result: 7.9

query: For "CCOC(=O)C1=C(O)C(=O)N(Cc2ccccc2)C1" , write its inhibition.
result: -9.58

query: For "C[C@@]12C(=O)OC(=O)[C@]1(C)[C@H]1CC[C@@H]2O1" , write its inhibition.
result: -26.6
